- target_or_test_system: wild-type EGFR (Homo sapiens, UniProt P00533)
- Construct: purchased Signalchem
- Sequence (P00533 25-1210): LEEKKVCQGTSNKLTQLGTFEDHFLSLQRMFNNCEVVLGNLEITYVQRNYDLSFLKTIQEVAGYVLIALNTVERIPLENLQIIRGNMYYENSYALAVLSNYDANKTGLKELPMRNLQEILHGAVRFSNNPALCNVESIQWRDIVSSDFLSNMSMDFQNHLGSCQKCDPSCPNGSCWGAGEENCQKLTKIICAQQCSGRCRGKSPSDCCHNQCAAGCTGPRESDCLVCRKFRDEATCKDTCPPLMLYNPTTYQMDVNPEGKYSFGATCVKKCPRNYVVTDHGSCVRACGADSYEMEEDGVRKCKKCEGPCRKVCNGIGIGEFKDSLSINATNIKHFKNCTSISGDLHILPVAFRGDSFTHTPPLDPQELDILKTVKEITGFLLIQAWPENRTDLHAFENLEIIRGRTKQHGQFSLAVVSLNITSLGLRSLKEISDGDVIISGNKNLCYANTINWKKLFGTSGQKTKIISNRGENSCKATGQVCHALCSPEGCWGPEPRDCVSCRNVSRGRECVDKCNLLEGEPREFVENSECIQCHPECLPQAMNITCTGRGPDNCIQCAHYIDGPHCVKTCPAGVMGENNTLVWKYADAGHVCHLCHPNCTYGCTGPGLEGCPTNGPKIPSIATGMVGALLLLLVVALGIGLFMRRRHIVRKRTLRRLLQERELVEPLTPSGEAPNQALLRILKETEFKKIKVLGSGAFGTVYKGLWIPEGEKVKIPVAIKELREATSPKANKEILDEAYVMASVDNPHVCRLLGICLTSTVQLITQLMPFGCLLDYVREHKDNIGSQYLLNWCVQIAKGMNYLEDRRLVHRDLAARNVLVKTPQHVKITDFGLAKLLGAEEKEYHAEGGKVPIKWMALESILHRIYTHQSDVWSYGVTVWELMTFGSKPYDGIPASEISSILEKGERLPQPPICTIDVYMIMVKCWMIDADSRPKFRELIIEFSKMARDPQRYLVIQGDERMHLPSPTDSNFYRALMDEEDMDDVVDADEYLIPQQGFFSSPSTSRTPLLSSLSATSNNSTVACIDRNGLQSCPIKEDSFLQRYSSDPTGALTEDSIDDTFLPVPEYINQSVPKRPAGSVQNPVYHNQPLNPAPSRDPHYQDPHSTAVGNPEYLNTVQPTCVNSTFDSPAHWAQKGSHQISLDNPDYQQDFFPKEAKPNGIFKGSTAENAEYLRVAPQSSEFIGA
- test_method_notes: Enzymology experiment in vitro (HTRF/FRET kinase activity), wild-type EGFR
- Assay type: biochemical
- measurement_context: HTRF KinEASE-TK, read-out: EGFR (WT) IC50
pIC50: −log10 of the molar value.
reported_property: pIC50

Solved entries:
molecule	target_or_test_system	pIC50
COc1cc(N2CCC3(CCN(CCF)CC3)CC2)c(-c2cnn(C)c2)cc1Nc1ncc(Br)c(Nc2ccc3ncccc3c2P(C)(C)=O)n1 [compound 238]	wild-type EGFR (Homo sapiens, UniProt P00533)	8.52
COc1cc(N2CCOCC2)c(-c2cnn(C)c2)cc1Nc1ncc(Br)c(Nc2ccccc2NS(=O)(=O)C2CC2)n1 [compound 125]	wild-type EGFR (Homo sapiens, UniProt P00533)	7.62
COc1cc(N2CCOCC2)c(-c2cnn(C)c2)cc1Nc1ncc(Br)c(Nc2ccc3nccnc3c2NS(C)(=O)=O)n1 [compound 126]	wild-type EGFR (Homo sapiens, UniProt P00533)	8.81
COc1cc(N2CCC(N3CCOC(C)C3)CC2)c(-c2cnn(C)c2)cc1Nc1ncc(Br)c(Nc2ccc3nccnc3c2P(C)(C)=O)n1 (racemic) [compound 148]	wild-type EGFR (Homo sapiens, UniProt P00533)	8.30
COc1cc(N2CCC3(CC2)CCN(C(C)CF)CC3)c(-c2cnn(C)c2)cc1Nc1ncc(Br)c(Nc2ccc3nccnc3c2P(C)(C)=O)n1 (stereo not shown) [compound 246]	wild-type EGFR (Homo sapiens, UniProt P00533)	8.98
COc1c(Nc2ncc(Br)c(Nc3ccc4nccnc4c3P(C)(C)=O)n2)cc(-c2cnn(C)c2)c(N2CCOCC2)c1F [compound 23]	wild-type EGFR (Homo sapiens, UniProt P00533)	7.39
COc1cc(N2CCN(C(C)C)C(CF)C2)c(-c2cnn(C)c2)cc1Nc1ncc(Br)c(Nc2ccc3nccnc3c2P(C)(C)=O)n1 (stereo not shown) [compound 164]	wild-type EGFR (Homo sapiens, UniProt P00533)	8.28
COc1cc(N2CCC(N3CCOCC3)C(F)C2)c(-c2cnn(C)c2)cc1Nc1ncc(Br)c(Nc2ccc3nccnc3c2P(C)(C)=O)n1 (stereo not shown) [compound 214]	wild-type EGFR (Homo sapiens, UniProt P00533)	8.73

A. COc1cc(N2CCC(N(C)C)C2)c(-c2cnn(C)c2)cc1Nc1ncc(Br)c(Nc2ccc3nccnc3c2P(C)(C)=O)n1 (stereo not shown) [compound 10]
B. COc1cc(N2CCOCC2)c(-c2cnn(C)c2)cc1Nc1ncc(C)c(Nc2ccc3nccnc3c2P(C)(C)=O)n1 [compound 4]
C. COc1cc(N2CCC(C)(OC)CC2)c(-c2c[nH]n(C)c2=O)cc1Nc1ncc(Br)c(Nc2ccc3nccnc3c2P(C)(C)=O)n1 [compound 241]
D. COc1cc(N2CCN3CCOCC3C2)c(-c2cnn(C)c2)cc1Nc1ncc(Br)c(Nc2ccc3nccnc3c2P(C)(C)=O)n1 (stereo not shown) [compound 161]
Could you please order the items by pIC50, going from the lowest number to the highest? Note for the reader: the ranking is given by listing the labels in the order requested. C, A, D, B

###

- target_or_test_system: Ba/F3 De119/T790M/C797S EGFR triple mutant cell line (Homo sapiens, UniProt P00533, T790M/C797S, cells depend on it, form not given)
- Sequence (P00533 with tags, fused parts or gaps DEL746-750/T790M/C797S, form open): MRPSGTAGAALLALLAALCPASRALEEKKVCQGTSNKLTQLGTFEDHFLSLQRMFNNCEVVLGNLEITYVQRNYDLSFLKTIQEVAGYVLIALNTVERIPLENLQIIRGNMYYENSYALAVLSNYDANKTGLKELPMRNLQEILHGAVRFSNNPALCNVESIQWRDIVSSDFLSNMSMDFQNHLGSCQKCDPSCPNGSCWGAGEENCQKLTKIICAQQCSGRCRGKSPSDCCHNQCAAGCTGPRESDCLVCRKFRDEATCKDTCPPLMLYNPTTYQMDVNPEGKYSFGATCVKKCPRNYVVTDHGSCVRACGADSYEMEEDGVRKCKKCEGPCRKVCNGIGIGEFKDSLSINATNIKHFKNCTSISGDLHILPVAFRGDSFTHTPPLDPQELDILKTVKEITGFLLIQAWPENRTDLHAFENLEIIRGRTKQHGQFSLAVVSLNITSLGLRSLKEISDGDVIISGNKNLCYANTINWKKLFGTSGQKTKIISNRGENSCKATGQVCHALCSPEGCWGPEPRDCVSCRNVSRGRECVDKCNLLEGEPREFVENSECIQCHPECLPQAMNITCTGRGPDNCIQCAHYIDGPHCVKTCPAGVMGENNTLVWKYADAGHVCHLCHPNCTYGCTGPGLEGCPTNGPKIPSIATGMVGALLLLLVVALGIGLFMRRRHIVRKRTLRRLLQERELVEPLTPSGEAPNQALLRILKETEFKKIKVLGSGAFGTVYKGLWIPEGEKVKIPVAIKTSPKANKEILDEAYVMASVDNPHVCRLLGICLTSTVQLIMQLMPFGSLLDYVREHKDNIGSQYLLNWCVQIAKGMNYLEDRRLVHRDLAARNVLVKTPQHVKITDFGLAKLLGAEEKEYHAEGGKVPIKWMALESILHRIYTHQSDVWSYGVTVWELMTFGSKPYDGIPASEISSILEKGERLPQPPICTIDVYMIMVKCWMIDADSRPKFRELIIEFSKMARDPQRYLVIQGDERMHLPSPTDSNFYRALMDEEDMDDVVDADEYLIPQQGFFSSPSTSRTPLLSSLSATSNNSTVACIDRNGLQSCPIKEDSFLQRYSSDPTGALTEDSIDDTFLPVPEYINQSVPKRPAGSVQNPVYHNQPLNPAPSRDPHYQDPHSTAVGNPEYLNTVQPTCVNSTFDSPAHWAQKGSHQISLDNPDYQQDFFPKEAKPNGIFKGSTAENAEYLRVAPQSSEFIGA
- test_method_notes: Cell proliferation inhibition experiment (CellTiter-Glo), Ba/F3 De119/T790M/C797S
- Assay type: cell-based
- measurement_context: Ba/F3 Del19/T790M/C797S EGFR triple mutant cells, 72 hours, Cell Titer-Glo; read-out: Ba/F3 (Del19/T790M/C797S) IC50
reported_property: GI50 (nM)

Solved entries:
molecule	GI50, nM
[2H]C([2H])([2H])N(c1cc(OC)c(Nc2ncc(Br)c(Nc3ccc4nccnc4c3P(C)(C)=O)n2)cc1-c1cnn(C)c1)C([2H])([2H])[2H]	1.7
CCOP(C)(=O)c1c(Nc2nc(Nc3cc(-c4cnn(C)c4)c(N4CCOCC4)c(F)c3OC)ncc2Br)ccc2nccnc12 (stereo not drawn)	45.2
COc1cc(N2CCC(N3CC(F)C3)C2)c(-c2cnn(C)c2)cc1Nc1ncc(Br)c(Nc2ccc3nccnc3c2P(C)(C)=O)n1 (racemic)	2.88

1. Cc1cc(Nc2ncc(Br)c(Nc3ccc4nccnc4c3P(C)(C)=O)n2)cc(-c2cnn(C)c2)c1N1CCOCC1
2. COc1cc(N2CCC3(CCN(CCF)CC3)CC2)c(-c2cnn(C)c2)cc1Nc1ncc(Br)c(Nc2ccccc2P(C)(C)=O)n1
3. COc1cc(N2CCC(N3CCOCC3)CC2)c(-c2cnsc2)cc1Nc1ncc(Br)c(Nc2ccc3nccnc3c2P(C)(C)=O)n1
Please rank these molecules by GI50 in descending order. Note for the reader: the ranking is given by listing the labels in the order requested. 3, 2, 1
(3: 9.29 nM, 2: 4.47 nM, 1: 2.87 nM)
